The entries below are paired with their reported Tumour volume, overall values (Mean).
- Test system: ASB XIV cells (pulmonary squamous cell carcinoma)
- experiment_notes: Effect of isomers and BLAS on in vivo tumour growth, ASB XIV tumours (Example 8)
- Design: species or system Balb/c mice
- conditions: day 8 after tumour inoculation; 260 ng/mouse i.p. days 6, 7 and 14
- Description: This assay was made in order to compare the effect of each stereoisomer on in vivo tumour growth in mice with the effect of the mixture of all of them challenged with ASB XIV tumours. The stereoisomers assayed were the same as in example 7 above plus a mixture of all of them (BLAS). […] Mice were observed daily and the tumour size recorded twice a week. […] Results were expressed as single values and/or as the mean±SD or median from each experimental group. […]
Quick reminder: number only, in mm^3, skip the unit.

# count of solved cases: 3
Br.N[C@@]1(C[n+]2ccccc2)C[C@@H](C(=O)O)NC1=O.[Br-] (single isomer, unassigned; isomer 1) [isomer 1]    0
Br.N[C@]1(C[n+]2ccccc2)C[C@@H](C(=O)O)NC1=O.[Br-] (single isomer, unassigned; isomer 3) [isomer 3]    0
Br.N[C@]1(C[n+]2ccccc2)C[C@H](C(=O)O)NC1=O.[Br-] (single isomer, unassigned; isomer 4) [isomer 4]    0

Proceed to the following item.
[Q] Dear colleague, I am looking for the recorded Tumour volume, overall values (Mean) of the following compound: Br.N[C@@]1(C[n+]2ccccc2)C[C@H](C(=O)O)NC1=O.[Br-] (single isomer, unassigned; isomer 2) [isomer 2]
[A] 0

---

- Tested on: ASB XIV cells (pulmonary squamous cell carcinoma)
- experiment_notes: Effect of isomers and BLAS on in vivo tumour growth, ASB XIV tumours (Example 8)
- Parameters: species or system Balb/c mice
- conditions: day 26 after tumour inoculation; 260 ng/mouse i.p. days 6, 7 and 14
The entries below are paired with their reported Tumour surface, overall values (Median).
Quick reminder: number only, in mm^2, skip the unit.

# count of solved cases: 3
Br.N[C@@]1(C[n+]2ccccc2)C[C@H](C(=O)O)NC1=O.[Br-] (single isomer, unassigned; isomer 2) [isomer 2]    110
Br.N[C@@]1(C[n+]2ccccc2)C[C@@H](C(=O)O)NC1=O.[Br-] (single isomer, unassigned; isomer 1) [isomer 1]    72
Br.N[C@]1(C[n+]2ccccc2)C[C@@H](C(=O)O)NC1=O.[Br-] (single isomer, unassigned; isomer 3) [isomer 3]    64

[Q] Dear colleague, I am looking for the recorded Tumour surface, overall values (Median) of the following compound: Br.N[C@]1(C[n+]2ccccc2)C[C@H](C(=O)O)NC1=O.[Br-] (single isomer, unassigned; isomer 4) [isomer 4]
[A] 49

---

- System: ASB XIV cells (pulmonary squamous cell carcinoma)
- experiment_notes: Effect of isomers and BLAS on in vivo tumour growth, ASB XIV tumours (Example 8)
- Design: species or system Balb/c mice
- conditions: day 29 after tumour inoculation; 260 ng/mouse i.p. days 6, 7 and 14
- Description: This assay was made in order to compare the effect of each stereoisomer on in vivo tumour growth in mice with the effect of the mixture of all of them challenged with ASB XIV tumours. The stereoisomers assayed were the same as in example 7 above plus a mixture of all of them (BLAS). […] Mice were observed daily and the tumour size recorded twice a week. […] Results were expressed as single values and/or as the mean±SD or median from each experimental group. […]
value_type: Tumour surface, overall values (Median) (mm^2)
Quick reminder: number only, in mm^2, skip the unit.

# count of solved cases: 3
Br.N[C@]1(C[n+]2ccccc2)C[C@H](C(=O)O)NC1=O.[Br-] (single isomer, unassigned; isomer 4) [isomer 4]    81
Br.N[C@@]1(C[n+]2ccccc2)C[C@@H](C(=O)O)NC1=O.[Br-] (single isomer, unassigned; isomer 1) [isomer 1]    110
Br.N[C@]1(C[n+]2ccccc2)C[C@@H](C(=O)O)NC1=O.[Br-] (single isomer, unassigned; isomer 3) [isomer 3]    99

Proceed to the following item.
[Q] Dear colleague, I am looking for the recorded Tumour surface, overall values (Median) of the following compound: Br.N[C@@]1(C[n+]2ccccc2)C[C@H](C(=O)O)NC1=O.[Br-] (single isomer, unassigned; isomer 2) [isomer 2]
[A] 144
